B1: TPR t1 (parent)
chain: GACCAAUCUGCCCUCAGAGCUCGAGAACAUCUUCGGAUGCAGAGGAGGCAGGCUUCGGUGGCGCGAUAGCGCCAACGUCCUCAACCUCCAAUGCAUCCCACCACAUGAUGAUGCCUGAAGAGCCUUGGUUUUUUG

Variants of: B1
Test: polymerase ribozyme fitness, log enrichment relative to wild type (log ratio); higher = more active; in vitro selection for triplet polymerase activity
VALUE_TYPE: polymerase ribozyme fitness (log ratio)

VARIANT_STRING	VALUE_TYPE	TEST_VALUE
U7A C62U U129A	polymerase ribozyme fitness (log ratio)	-0.65
G63U C104A	polymerase ribozyme fitness (log ratio)	-2.5
A50U C86A A118U	polymerase ribozyme fitness (log ratio)	-1.06
C40G G69C	polymerase ribozyme fitness (log ratio)	-2.54
C49A U81C U129G	polymerase ribozyme fitness (log ratio)	-3.78
G42U A43C G47C C62A U130C	polymerase ribozyme fitness (log ratio)	-4.8
C56A A68G	polymerase ribozyme fitness (log ratio)	-2.75
C70G U112C C114A	polymerase ribozyme fitness (log ratio)	-4.91
G52A U87C	polymerase ribozyme fitness (log ratio)	0.43
C28A C56U A121G	polymerase ribozyme fitness (log ratio)	-2.77
A68G U112C	polymerase ribozyme fitness (log ratio)	-0.794
A18U U38G G71A C89A U129A	polymerase ribozyme fitness (log ratio)	-6.64
C4U A18U	polymerase ribozyme fitness (log ratio)	-2.35
C11A G60C C86U	polymerase ribozyme fitness (log ratio)	-1.76
U38G G52U G135C	polymerase ribozyme fitness (log ratio)	-3.58
G42A G63A	polymerase ribozyme fitness (log ratio)	-2.56
U33A U59A G61U U106G	polymerase ribozyme fitness (log ratio)	-5.96
A74U U96A A100U G113U	polymerase ribozyme fitness (log ratio)	-6.78
A18C A27G A111U G128C	polymerase ribozyme fitness (log ratio)	-6.38
A84G C98U A100U	polymerase ribozyme fitness (log ratio)	-4.01
A2C A6C C8A G71A A84U U129A	polymerase ribozyme fitness (log ratio)	-2.03
C13G C40A U133A	polymerase ribozyme fitness (log ratio)	-2.76
G120U U126G U132A	polymerase ribozyme fitness (log ratio)	-0.734
G44U G47U U55C	polymerase ribozyme fitness (log ratio)	-2.82
C22G G39C A50G G51A C115U	polymerase ribozyme fitness (log ratio)	-5.65
A5U U9G C62A	polymerase ribozyme fitness (log ratio)	-0.961
G17U C56G G113A	polymerase ribozyme fitness (log ratio)	-5.78
A18U G48U G52U G69U C79G	polymerase ribozyme fitness (log ratio)	-2.76
G48A G61C	polymerase ribozyme fitness (log ratio)	-1.66
G19U U21A C79G C114A	polymerase ribozyme fitness (log ratio)	-0.277
C73G C80U C123G	polymerase ribozyme fitness (log ratio)	-0.835
U21A C31U U78G C101G U106A G113C	polymerase ribozyme fitness (log ratio)	-4.88
A95U G117C	polymerase ribozyme fitness (log ratio)	-4.23
C15U G39C A66U G69C A75U	polymerase ribozyme fitness (log ratio)	-3.53
C86A G110A C123G	polymerase ribozyme fitness (log ratio)	-1.37
G35A C114G	polymerase ribozyme fitness (log ratio)	-5.64
A6C C53A G69C G120A	polymerase ribozyme fitness (log ratio)	-1.04
G77U A84G C85G	polymerase ribozyme fitness (log ratio)	-2.45
C12U C62G	polymerase ribozyme fitness (log ratio)	-1.57
C8A G48C	polymerase ribozyme fitness (log ratio)	-0.457
G52U U55A A83G U106A C115U	polymerase ribozyme fitness (log ratio)	-5.1
C3U U87G	polymerase ribozyme fitness (log ratio)	-0.293
C22U G117A	polymerase ribozyme fitness (log ratio)	-4.58
U9C A41C U87C C114U	polymerase ribozyme fitness (log ratio)	-0.644
A16U C79G	polymerase ribozyme fitness (log ratio)	-2.59
G17U C40G A90G A95U C115G	polymerase ribozyme fitness (log ratio)	-3.65
